# System: Candida parapsilosis
# TEST: Antifungal activity against Candida parapsilosis 22019 assessed as inhibition of fungal growth incubated for 48 hrs by CLSI based broth microdilution assay
# Assay type: functional
# SETTINGS: Lodderomyces parapsilosis
MEASURE_NAME: MIC (µg/mL)

C[C@@H](OCc1ccn(Cc2ccccc2F)n1)[C@](O)(Cn1cncn1)c1ccc(F)cc1F    0.5
C[C@@H](OCc1ccn(Cc2ccc(C#N)cc2)n1)[C@](O)(Cn1cncn1)c1ccc(F)cc1F    0.5
C[C@@H](OCc1ccn(Cc2ccc(Br)cc2)n1)[C@](O)(Cn1cncn1)c1ccc(F)cc1F    0.25
C[C@@H](OCc1ccn(Cc2ccc(F)cc2)n1)[C@](O)(Cn1cncn1)c1ccc(F)cc1F    0.25
C[C@@H](OCc1ccn(Cc2ccc(F)cc2F)n1)[C@](O)(Cn1cncn1)c1ccc(F)cc1F    0.5
C[C@@H](OCc1ccn(Cc2ccc(I)cc2)n1)[C@](O)(Cn1cncn1)c1ccc(F)cc1F    0.25
C[C@@H](OCc1ccn(Cc2c(Cl)cccc2Cl)n1)[C@](O)(Cn1cncn1)c1ccc(F)cc1F    1

The reported measurements were obtained from ChEMBL document CHEMBL5579851.
